Molecular target: B1 bradykinin receptor (Homo sapiens, UniProt P46663)
Sequence (P46663 whole entry): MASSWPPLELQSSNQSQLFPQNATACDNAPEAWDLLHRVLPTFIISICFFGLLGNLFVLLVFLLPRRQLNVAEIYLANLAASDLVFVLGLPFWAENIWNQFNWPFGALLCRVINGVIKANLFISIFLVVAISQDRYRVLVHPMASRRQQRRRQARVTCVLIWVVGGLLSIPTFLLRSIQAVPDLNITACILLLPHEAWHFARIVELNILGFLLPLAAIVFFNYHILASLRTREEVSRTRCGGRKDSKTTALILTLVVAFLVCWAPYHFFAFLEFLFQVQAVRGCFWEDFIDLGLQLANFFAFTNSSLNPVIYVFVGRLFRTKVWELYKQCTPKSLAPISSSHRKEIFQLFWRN
Property label: Ki (nM)
Numbers only, in nM.

Dear colleague, could you send me Ki for each of the items below? Thanks.
1. COC(=O)c1ccccc1-c1ccc(CNc2nccc(C)c2NC(=O)CC#N)cc1
2. COC(=O)C1C2C=CC(CC2)C1c1ccc(CNc2nccc(C)c2NC(=O)CC#N)cc1 (racemic; form 1)
3. COC(=O)c1ccccc1C1CCC(CNc2nccc(C)c2NC(=O)CC#N)CC1 (centres undefined)
4. COC(=O)C1C2C=CC(CC2)C1c1ccc(CNc2nccc(C)c2NC(=O)CC#N)cc1 (racemic; form 2)
5. COC(=O)C1C2CCC(C2)C1c1ccc(CNc2nccc(C)c2NC(=O)CC#N)cc1 (racemic)
6. COC(=O)C1C2CCC(CC2)C1c1ccc(CNc2nccc(C)c2NC(=O)CC#N)cc1 (racemic)
7. Cc1noc([C@H]2CC=CC[C@@H]2c2ccc(CNc3nccc(C)c3NC(=O)CC#N)cc2)n1

Result ::
1. 11
2. 142
3. 385
4. 38
5. 730
6. 54
7. 2

Dear colleague, could you send me Ki for each of the items below? Thanks.
1. COC(=O)c1cccn1-c1ccc(CNc2nccc(C)c2NC(=O)CC#N)cc1
2. COC(=O)C1=C(c2ccc(CNc3nccc(C)c3NC(=O)CC#N)cc2)CCC1

Result ::
1: 250; 2: 126
